Test system: CAKI-1
ASSAY_INFO: NCI tumour cell line growth inhibition, 48 h
The source made the active and inactive calls. No stated cut-off is given here; in the data, active = GI50 up to about 1.1 µM and inactive = higher.
Assign GI50 to each entry below.

Value sought: GI50, system CAKI-1, item CSc1cccc(-n2c3nc(=O)n(C)c(=O)c-3nc3ccccc32)c1 . Result: 3.91 µM (inactive)

Entry C=C1C(O)CC[C@]2(C)C1C1OC(C)(C)O[C@]13CC(=O)C(C)=C([C@H]1OC(C)(C)OC12)C3(C)C (stereo partly drawn) , CAKI-1 data, GI50 value: > 100 µM (inactive)

// compound COc1cc(/C=C2/SC(c3ccccc3)N(c3cccc(Cl)c3)C2=O)cc(OC)c1OC (stereo not drawn) , assay CAKI-1, GI50 value: 35.9 µM (inactive)

# value of GI50, CAKI-1, item CCP(=O)(OC)C1=CCN(C(=O)OCC[Si](C)(C)C)CC1 (stereo not drawn) = > 100 µM (inactive)

# lookup: CCCCCCCCCOC(=S)NC on CAKI-1, GI50 = 20.7 µM (inactive)

Entry CCOC(=O)c1c(SCc2ccccc2)nc2c3ccccc3ccn12 , CAKI-1 data, GI50 value: > 100 µM (inactive)

Case C#CCn1c(=O)[nH]c(=O)c2cccnc21 , CAKI-1, GI50 recorded as > 100 µM (inactive)

Field GI50 (system: CAKI-1) for entry S=C(Nc1cc(Cl)c(Cl)cc1Cl)SCc1ccccc1 = 22.6 µM (inactive)

Reading of GI50 for CN1Cc2cc(O)c(O)cc2C(O)C1 (stereo not drawn) with CAKI-1: > 100 µM (inactive)

GI50 of CC(C(=O)O)c1ccc(-n2nnc3c(=O)[nH][nH]c(=O)c32)cc1 (stereo not drawn) , assay on CAKI-1, is > 100 µM (inactive)

Recorded GI50 for Brc1ccc2c3c1[C@@H]1O[C@@H]1c1cccc(c1-3)[C@@H]1O[C@H]21 on CAKI-1 was 13.1 µM (inactive)

Considering Cc1cccc(C2NC(=O)c3ccccc3N2)c1 (stereo not drawn) , its GI50 with CAKI-1 was recorded as 8.65 µM (inactive)

Bench note, CAKI-1: CS(=O)(=O)c1nc(-c2cc3c(c(S(C)(=O)=O)n2)CCC3)cc2c1CCCCC2 , GI50 reads 21 µM (inactive)

* * *

System: PC-3
ASSAY_INFO: NCI tumour cell line growth inhibition, 48 h
Activity calls are given as the source filed them. Rule as the data show it: active = GI50 up to about 1.1 µM and inactive = higher.
Returns: one label drawn from active, inactive

**Query** What call does the record list for CN1N=C(c2ccncc2)OC1c1ccc(C(F)(F)F)cc1 (centres undefined) ?
**Result** inactive

**Query** Test call for this molecule, please: Clc1cc(Br)c2c3c(c(Br)cc(Cl)c13)C(Br)=C2Br
**Result** inactive

**Query** Per the assay record, what outcome was assigned to COc1cc([C@@H]2c3cc4c(cc3[C@@H](/N=C/c3ccc(C(=O)O[C@H]5C[C@H]6OC[C@@]6(OC(C)=O)[C@H]6[C@H](OC(=O)c7ccccc7)[C@]7(O)C[C@H](OC(=O)[C@H](OC(=O)c8ccc(/C=N/[C@@H]9c%10cc%11c(cc%10[C@@H](c%10cc(OC)c(O)c(OC)c%10)[C@H]%10C(=O)OC[C@@H]%109)OCO%11)cc8)[C@@H](NC(=O)c8ccccc8)c8ccccc8)C(C)=C([C@@H](OC(C)=O)C(=O)[C@]56C)C7(C)C)cc3)C3COC(=O)C32)OCO4)cc(C)c1O (some centres undefined) ?
**Result** inactive

**Query** Fill in: this test's call for N#CCCN(CCCN(C(=O)Nc1ccccc1)c1ccccc1)C(=O)Nc1ccccc1 is ___
**Result** inactive

**Query** Please indicate how the test categorized COc1cc(C(O)CCBr)c(OC)cc1C (centres undefined) .
**Result** inactive

**Query** Called result for Oc1cccc(-c2ccc3c4c2O[C@H]2c5[nH]c6ccccc6c5C[C@@]5(O)[C@@H](C3)N(CC3CC3)CC[C@]425)c1
**Result** inactive

**Query** Which outcome was entered for the molecule COC(COC(=O)N1CCN(C=O)CC1)C1=C(N2CC2)C(=O)C(C)=C(N2CC2)C1=O (centres undefined) in this test?
**Result** active

**Query** For this molecule, state the assay outcome: OC(c1nc2ccccc2s1)(C(F)(F)F)C(F)(F)F
**Result** inactive

**Query** Answer briefly: the call reported for COc1ccccc1NC(=S)Nc1cccc(C)n1 in this assay.
**Result** inactive

**Query** Kindly provide the recorded test outcome for the following molecule: Clc1cc(-c2ccccc2)nc(Nc2nc3ccccc3[nH]2)n1
**Result** inactive

**Query** Outcome? O=c1n(-c2ccccc2)c(=O)n2n1C1C=CC2CCCCCC1
**Result** inactive

**Query** Please let me know the test result on file for COc1ccc(-c2cc(-c3cc4cc(Br)ccc4nc3Cl)c(C#N)c(N)n2)cc1 .
**Result** inactive

**Query** Status in this test for CC(C)(CC1(C)NC(=O)NC1=O)OCc1ccccc1 (centres undefined) ?
**Result** inactive

**Query** Dear colleague, could you share the recorded outcome for C[N+]1(CCCC[N+]2(C)CCCCCCC2)CCCCCCC1 when you have a moment?
**Result** inactive

**Query** // return assay outcome for COc1cc2c(cc1OC)-c1[nH]c3ccc([N+](=O)[O-])cc3c1CC(=O)N2
**Result** inactive

**Query** Identify the outcome logged in this assay for the molecule shown: CC(C)(C)NC(=O)[C@H]1CC[C@H]2[C@@H]3CC=C4NC(=O)CC[C@]4(C)[C@H]3CC[C@]12C
**Result** inactive

**Query** // param item: CCP(=O)(OC)C1=CCN(C(=O)OCC[Si](C)(C)C)CC1 (centres undefined) ; yields the recorded call
**Result** inactive

**Query** Just curious, what result did COc1ccc([C@H]2CC(=O)C[C@H](c3ccc(OC)cc3OC)C23C(=O)c2ccccc2C3=O)c(OC)c1 get here?
**Result** inactive

**Query** Called result for O=S(=O)(N=S(c1ccc(Cl)cc1)c1ccc(Cl)cc1)c1ccccc1
**Result** inactive

**Query** Hello, I am checking results. What call was entered for CC[C@@]1(O)C(=O)OCc2c1cc1n(c2=O)Cc2c-1nc1ccccc1c2/C=N\NC(=O)C(N)CS (some centres undefined) ?
**Result** inactive

**Query** For N#Cc1c(C#N)c(SSc2c(C#N)c(C#N)c(N)n2-c2ccc(F)cc2)n(-c2ccc(F)cc2)c1N , what call appears in the results of this test?
**Result** inactive

**Query** Returns: the outcome recorded for CN(C)c1ccc(/C=C2\N=C(c3ccccc3)N(c3nc4ccc(Sc5ccccc5)cc4[nH]3)C2=O)cc1 in this assay.
**Result** inactive

**Query** Status in this test for CCNc1nc2ccccc2nc1NCC ?
**Result** inactive

**Query** Assay result, entry O=C(OCc1ccccc1CN1CCOCC1)c1ccc(Br)cc1 — outcome?
**Result** inactive

**Query** Fill in: this test's call for Cc1ccc(S(=O)(=O)NC(=O)NCCc2c[nH]cn2)cc1 is ___
**Result** inactive

**Query** Dear colleague, could you share the recorded outcome for Nc1c2c(nc3ccccc13)-c1ccccc1NCCC2 when you have a moment?
**Result** inactive

**Query** Record lookup: outcome of this test for O=C(Nc1ccccc1)N(C1=NCC(CI)S1)c1ccc(F)c(F)c1 (centres undefined) ?
**Result** inactive

**Query** What is the recorded call for this molecule in the test? CN1Cc2cc(O)c(O)cc2C(O)C1 (centres undefined)
**Result** inactive

**Query** Returns: the outcome recorded for CCn1cc(C(=O)O)c(=O)c2cc(F)c(N3CCN(CN4C(=O)/C(=N\c5ncc(Cc6cc(OC)c(OC)c(OC)c6)c(N)n5)c5cc(Cl)ccc54)CC3)cc21 in this assay.
**Result** inactive

**Query** Please let me know the test result on file for O=C(N/N=C(/c1ccccc1)C(F)(F)F)c1ccncc1 .
**Result** inactive

**Query** # lookup: test call for CCOC(=O)Cc1csc2[n+]1C(=O)/C(=C\c1cccc(Cl)c1Cl)S2
**Result** inactive

**Query** Kindly provide the recorded test outcome for the following molecule: C=C(NC(=O)C(=C)NC(=O)c1csc(C2=NC3c4csc(n4)C4NC(=O)c5csc(n5)C(C(C)(O)C(C)O)NC(=O)C5CSC(=N5)/C(=C/C)NC(=O)C(C(C)O)NC(=O)c5csc(n5)C3(CC2)NC(=O)C(C)NC(=O)C(=C)NC(=O)C(=C)NC(=O)C(C(C)C)NC2C=Cc3c(C(C)O)cc(nc3C2O)C(=O)OC4C)n1)C(N)=O (centres undefined)
**Result** inactive

**Query** Recorded test outcome, item C#CCn1c(=O)ccn(/C(=C/C(=O)OCC)C(=O)OCC)c1=O
**Result** inactive

**Query** Outcome logged for CCCCCCCCCCCCCCCC[N+](C)(C)Cc1ccc(F)cc1 in this assay:
**Result** active
